Experimental Target: Recombinant human JARID1B/KDM5B (Homo sapiens, UniProt Q9UGL1)
Construct: purchased Active Motif 31432; host or cells: Sf9 insect cells
Sequence (Q9UGL1 whole entry): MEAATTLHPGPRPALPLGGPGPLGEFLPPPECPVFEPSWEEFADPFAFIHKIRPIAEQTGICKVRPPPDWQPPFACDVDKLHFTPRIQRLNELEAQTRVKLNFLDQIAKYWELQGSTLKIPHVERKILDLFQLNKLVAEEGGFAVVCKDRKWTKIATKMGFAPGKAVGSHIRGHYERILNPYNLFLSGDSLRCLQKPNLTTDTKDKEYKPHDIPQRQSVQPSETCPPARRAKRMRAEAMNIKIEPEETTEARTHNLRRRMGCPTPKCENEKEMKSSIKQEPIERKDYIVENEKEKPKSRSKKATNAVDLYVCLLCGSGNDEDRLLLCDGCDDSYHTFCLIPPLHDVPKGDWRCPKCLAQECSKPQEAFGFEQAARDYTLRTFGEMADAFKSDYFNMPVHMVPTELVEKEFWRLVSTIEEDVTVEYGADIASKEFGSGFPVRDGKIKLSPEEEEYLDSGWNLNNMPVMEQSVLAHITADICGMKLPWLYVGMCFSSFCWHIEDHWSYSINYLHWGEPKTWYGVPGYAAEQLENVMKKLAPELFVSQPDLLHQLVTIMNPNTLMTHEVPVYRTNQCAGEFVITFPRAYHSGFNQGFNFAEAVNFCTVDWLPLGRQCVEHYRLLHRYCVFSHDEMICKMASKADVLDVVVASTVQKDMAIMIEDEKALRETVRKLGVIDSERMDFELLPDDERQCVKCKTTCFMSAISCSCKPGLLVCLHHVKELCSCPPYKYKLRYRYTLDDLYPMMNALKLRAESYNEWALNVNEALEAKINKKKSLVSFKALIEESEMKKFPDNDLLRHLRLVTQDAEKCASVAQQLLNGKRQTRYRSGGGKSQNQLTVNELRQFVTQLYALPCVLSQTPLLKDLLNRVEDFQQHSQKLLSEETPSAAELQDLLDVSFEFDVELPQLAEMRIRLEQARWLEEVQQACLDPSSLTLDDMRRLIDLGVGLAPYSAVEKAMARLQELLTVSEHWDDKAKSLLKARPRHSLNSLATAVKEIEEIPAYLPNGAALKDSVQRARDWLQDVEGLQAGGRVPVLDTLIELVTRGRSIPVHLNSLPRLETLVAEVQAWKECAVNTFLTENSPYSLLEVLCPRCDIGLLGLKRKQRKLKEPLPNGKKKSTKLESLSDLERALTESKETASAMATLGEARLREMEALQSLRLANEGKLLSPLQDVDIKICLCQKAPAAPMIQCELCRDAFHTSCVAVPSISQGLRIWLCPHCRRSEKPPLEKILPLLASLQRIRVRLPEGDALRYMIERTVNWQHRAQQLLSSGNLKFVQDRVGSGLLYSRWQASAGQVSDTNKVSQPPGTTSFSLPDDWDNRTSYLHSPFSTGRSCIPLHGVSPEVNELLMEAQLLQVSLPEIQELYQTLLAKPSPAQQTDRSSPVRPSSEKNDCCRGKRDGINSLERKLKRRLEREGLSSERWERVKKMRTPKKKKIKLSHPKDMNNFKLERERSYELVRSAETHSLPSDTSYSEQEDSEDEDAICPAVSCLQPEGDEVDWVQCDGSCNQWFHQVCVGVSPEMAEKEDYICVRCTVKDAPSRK
Protocol Description: LANCE Ultra TR-FRET JARID1B (KDM5B) demethylase inhibition assay
Assay type: biochemical
Experimental Context: 0.1 uM of test-compounds, FLAG-JARID1B, 500 nM biotinylated H3K4me3 peptide substrate, 30 min at room temperature
inhibition at 0.1 µM: recorded values

So what does the record say about inhibition at 0.1 µM for O=c1[nH]c(COc2ccccc2Cl)nc2c(-c3csc(NCCO)n3)nccc12 ? 20 to 50%

So what does the record say about inhibition at 0.1 µM for Nc1nc(-c2nccc3c(=O)[nH]c(CCc4ccc(F)cc4)nc23)cs1 ? 20 to 50%

So what does the record say about inhibition at 0.1 µM for O=c1[nH]cnc2c(-c3cnn(Cc4ccccc4)c3)nccc12 ? 20 to 50%

So what does the record say about inhibition at 0.1 µM for O=c1[nH]cnc2c(-n3cc(-c4cccnc4)cn3)nccc12 ? < 20%

So what does the record say about inhibition at 0.1 µM for Nc1nn(-c2nccc3c(=O)[nH]cnc23)cc1-c1cccc(Cl)c1 ? 20 to 50%

So what does the record say about inhibition at 0.1 µM for O=C(c1ccccc1)c1ccc(OCc2nc3c(-c4csc(NCCO)n4)nccc3c(=O)[nH]2)cc1 ? 20 to 50%

So what does the record say about inhibition at 0.1 µM for CN1CCCC1CCNc1nc(-c2nccc3c(=O)[nH]cnc23)cs1 (stereo not shown) ? 20 to 50%

* * *

inhibition at 0.1 µM: recorded values
Experimental Target: Recombinant human JARID1B/KDM5B (Homo sapiens, UniProt Q9UGL1)
Construct: purchased Active Motif 31432; host or cells: Sf9 insect cells
Protocol Description: LANCE Ultra TR-FRET JARID1B (KDM5B) demethylase inhibition assay
Type: biochemical
Experimental Context: 0.1 uM of test-compounds, FLAG-JARID1B, 500 nM biotinylated H3K4me3 peptide substrate, 30 min at room temperature

Some entries whose results are on file:
1. O=c1[nH]c(COc2ccc(F)c(Cl)c2)nc2c(-c3csc(NC4CCN(Cc5ccccc5)CC4)n3)nccc12 [Compound 102] | ≥ 50%
2. CN1CCOC(CNc2nc(-c3nccc4c(=O)[nH]cnc34)cs2)C1 (stereo not shown) [Compound 58] | 20 to 50%
3. O=c1[nH]cnc2c(-c3csc(NC4CCN(Cc5ccccc5)CC4)n3)nccc12 [Compound 61] | 20 to 50%
4. CC(C)(c1ccccc1)c1ccc(OCc2nc3c(-c4csc(NCCO)n4)nccc3c(=O)[nH]2)cc1 [Compound 158] | < 20%
5. CN(C)CCNc1nc(-c2nccc3c(=O)[nH]c(CCc4ccccc4)nc23)cs1 [Compound 162] | 20 to 50%
6. C=CCNc1nc(-c2nccc3c(=O)[nH]c(COc4ccc(Cc5ccccc5)cc4)nc23)cs1 [Compound 72] | 20 to 50%

So what does the record say about inhibition at 0.1 µM for C[C@H](O)CNc1nc(-c2nccc3c(=O)[nH]c(-c4cc5ccccc5o4)nc23)cs1 [Compound 168] ? < 20%

So what does the record say about inhibition at 0.1 µM for CN1CCC(Nc2nc(-c3nccc4c(=O)[nH]c(COCc5ccccc5)nc34)cs2)CC1 [Compound 155] ? 20 to 50%

So what does the record say about inhibition at 0.1 µM for C[C@@H](O)CNc1nc(-c2nccc3c(=O)[nH]cnc23)cs1 [Compound 40] ? ≥ 50%

So what does the record say about inhibition at 0.1 µM for O=c1[nH]c(COCc2ccccc2)nc2c(-c3csc(NCCO)n3)nccc12 [Compound 142] ? 20 to 50%

So what does the record say about inhibition at 0.1 µM for CN1CCCC1CCNc1nc(-c2nccc3c(=O)[nH]c(COc4ccc(F)c(Cl)c4)nc23)cs1 (stereo not shown) [Compound 92] ? ≥ 50%

So what does the record say about inhibition at 0.1 µM for O=c1[nH]c(COCc2ccccc2)nc2c(-c3csc(NCC4CCN(Cc5ccccc5)CC4)n3)nccc12 [Compound 145] ? < 20%

So what does the record say about inhibition at 0.1 µM for C[C@@H](O)CNc1nc(-c2nccc3c(=O)[nH]c(COc4ccc(F)c(Cl)c4)nc23)cs1 [Compound 83] ? ≥ 50%

So what does the record say about inhibition at 0.1 µM for CN(C)CCCNc1nc(-c2nccc3c(=O)[nH]cnc23)cs1 [Compound 47] ? 20 to 50%

So what does the record say about inhibition at 0.1 µM for O=c1[nH]cnc2c(-c3csc(NCC4CCN(C5CCCC5)CC4)n3)nccc12 [Compound 54] ? ≥ 50%

So what does the record say about inhibition at 0.1 µM for NCCNc1nc(-c2nccc3c(=O)[nH]c(COCc4ccccc4)nc23)cs1 [Compound 149] ? 20 to 50%
